Listed here: items and their measured MIC E. coli ATCC 25922.
Tested on: E. coli ATCC 25922
Type: cell-based, Escherichia coli
Conditions: ATCC 25922
Peptide text beside a SMILES is read from it.

// known answers, use as guide
INSERT INTO assay_data (compound, tested_on, observation_type, observed_value) VALUES
  ('CC(C)C[C@H](NC(=O)[C@H](CC(C)C)NC(=O)[C@H](CCCCN)NC(=O)CNC(=O)[C@H](CC(C)C)NC(=O)[C@H](CC(C)C)NC(=O)[C@H](CO)NC(=O)[C@H](C)NC(=O)[C@H](CC(C)C)NC(=O)[C@H](CO)NC(=O)[C@H](CC(C)C)NC(=O)[C@H](CC(C)C)NC(=O)CN)C(N)=O [DFT509, GLLSLASLLGKLL] (H-GLLSLASLLGKLL-NH2; N-terminus assumed)', 'E. coli ATCC 25922', 'MIC E. coli ATCC 25922', '1.5 to 3.1 µM'),
  ('CC[C@H](C)[C@H](NC(=O)[C@H](CCCCN)NC(=O)[C@H](CCCNC(=N)N)NC(=O)[C@H](CC(C)C)NC(=O)[C@H](Cc1c[nH]c2ccccc12)NC(=O)[C@@H](N)Cc1c[nH]c2ccccc12)C(=O)N[C@@H](Cc1c[nH]c2ccccc12)C(=O)N[C@@H](Cc1c[nH]c2ccccc12)C(=O)O [WW292, WWLRKIWW] (H-WWLRKIWW-OH; N-terminus and C-terminus assumed)', 'E. coli ATCC 25922', 'MIC E. coli ATCC 25922', '25 µM');

Field: next compound
Can you look up the measured MIC E. coli ATCC 25922 of CC[C@H](C)[C@H](NC(=O)[C@H](CCCCN)NC(=O)[C@H](CCCNC(=N)N)NC(=O)[C@H](CC(C)C)NC(=O)[C@@H](N)Cc1c[nH]c2ccccc12)C(=O)N[C@@H](Cc1c[nH]c2ccccc12)C(=O)N[C@@H](Cc1c[nH]c2ccccc12)C(=O)N[C@@H](Cc1c[nH]c2ccccc12)C(=O)O [WW293, WLRKIWWW] (H-WLRKIWWW-OH; N-terminus and C-terminus assumed) for me?
12.5 to 25 µM

###

Test system: E. faecium V286-17 (VRE)
Assay: microbe, parasite or virus in culture
Assay type: cell-based, Enterococcus faecium
Details: V286-17 (VRE)
Square brackets hold non-standard residues; d marks the D form. Peptide text beside a SMILES is read from it.
OBSERVATION_TYPE: MIC E. faecium V286-17 (VRE)

Can you look up the measured MIC E. faecium V286-17 (VRE) of CC(C)C[C@@H](NC(=O)[C@@H](CC(C)C)NC(=O)[C@@H](CCCCN)NC(=O)[C@@H](CC(C)C)NC(=O)CNC(=O)[C@@H](CC(C)C)NC(=O)[C@@H](CO)NC(=O)[C@@H](CC(C)C)NC(=O)[C@@H](CC(C)C)NC(=O)[C@@H](CC(C)C)NC(=O)[C@@H](CCCCN)NC(=O)[C@@H](CC(C)C)NC(=O)CN)C(N)=O [DFT561d, GLKLLLSLGLKLL] (H-G[dL][dK][dL][dL][dL][dS][dL]G[dL][dK][dL][dL]-NH2; N-terminus and C-terminus assumed) for me?
3.1 to 6.25 µM

###

System: S. aureus USA300
Assay: microbe, parasite or virus in culture
Assay type: cell-based, Staphylococcus aureus
Details: USA300
Square brackets hold non-standard residues; d marks the D form. Peptide text beside a SMILES is read from it.
OBSERVATION_TYPE: MIC

// known answers, use as guide
INSERT INTO measurements (compound, observation_type, observed_value) VALUES
  ('CC(C)C[C@H](NC(=O)[C@H](CC(C)C)NC(=O)[C@H](CCCCN)NC(=O)[C@H](CC(C)C)NC(=O)CNC(=O)[C@H](CC(C)C)NC(=O)[C@H](CCCCN)NC(=O)[C@H](CC(C)C)NC(=O)[C@H](CC(C)C)NC(=O)[C@H](CC(C)C)NC(=O)[C@H](CCCCN)NC(=O)[C@H](CC(C)C)NC(=O)[C@@H](N)CCCCN)C(N)=O [DFT565, KLKLLLKLGLKLL] (H-KLKLLLKLGLKLL-NH2; N-terminus and C-terminus assumed)', 'MIC', '3.1 µM'),
  ('CC(C)C[C@@H](NC(=O)[C@@H](CC(C)C)NC(=O)[C@@H](CCCCN)NC(=O)[C@@H](CC(C)C)NC(=O)CNC(=O)[C@@H](CC(C)C)NC(=O)[C@@H](CO)NC(=O)[C@@H](CC(C)C)NC(=O)[C@@H](CC(C)C)NC(=O)[C@@H](CC(C)C)NC(=O)[C@@H](CCCCN)NC(=O)[C@@H](CC(C)C)NC(=O)CN)C(N)=O [DFT561d, GLKLLLSLGLKLL] (H-G[dL][dK][dL][dL][dL][dS][dL]G[dL][dK][dL][dL]-NH2; N-terminus and C-terminus assumed)', 'MIC', '3.1 µM');

Can you look up the measured MIC of CC(C)C[C@H](NC(=O)[C@H](CC(C)C)NC(=O)[C@H](CCCCN)NC(=O)[C@H](CC(C)C)NC(=O)CNC(=O)[C@H](CC(C)C)NC(=O)[C@H](CCCCN)NC(=O)[C@H](CC(C)C)NC(=O)[C@H](CC(C)C)NC(=O)[C@H](CC(C)C)NC(=O)[C@H](CCCCN)NC(=O)[C@H](CC(C)C)NC(=O)CN)C(N)=O [DFT564, GLKLLLKLGLKLL] (H-GLKLLLKLGLKLL-NH2; N-terminus and C-terminus assumed) for me?
3.1 µM

###

System: E. coli ATCC 25922
Type: cell-based, Escherichia coli
Settings: ATCC 25922
Peptide text beside a SMILES is read from it.
OBSERVATION_TYPE: MIC E. coli ATCC 25922

// known answers, use as guide
INSERT INTO results (compound, observed_value) VALUES
  ('CC(C)C[C@H](NC(=O)[C@H](CC(C)C)NC(=O)[C@H](CCCCN)NC(=O)CNC(=O)[C@H](CC(C)C)NC(=O)[C@H](CO)NC(=O)[C@H](CC(C)C)NC(=O)[C@H](CO)NC(=O)[C@H](CC(C)C)NC(=O)[C@H](CC(C)C)NC(=O)CN)C(N)=O [DFT524, GLLSL-SL-GKLL] (H-GLLSLSLGKLL-NH2; N-terminus and C-terminus assumed)', '>25 µM'),
  ('CC[C@H](C)[C@H](NC(=O)[C@H](CCCCN)NC(=O)[C@@H](N)CCCNC(=N)N)C(=O)N[C@@H](Cc1c[nH]c2ccccc12)C(=O)N[C@@H](Cc1c[nH]c2ccccc12)C(=O)N[C@@H](Cc1c[nH]c2ccccc12)C(=O)N[C@@H](Cc1c[nH]c2ccccc12)C(=O)N[C@@H](CC(C)C)C(N)=O [WW295, RKIWWWWL] (H-RKIWWWWL-NH2; N-terminus and C-terminus assumed)', '6.2 µM');

Field: next compound
Can you look up the measured MIC E. coli ATCC 25922 of CC(C)C[C@H](NC(=O)[C@H](CC(C)C)NC(=O)[C@H](CCCCN)NC(=O)CNC(=O)[C@H](CC(C)C)NC(=O)[C@H](CO)NC(=O)[C@H](CO)NC(=O)[C@H](CC(C)C)NC(=O)[C@H](CC(C)C)NC(=O)CN)C(N)=O [DFT525, GLLS--SL-GKLL] (H-GLLSSLGKLL-NH2; N-terminus and C-terminus assumed) for me?
>25 µM

###

Assay: in vivo
Settings: BALB/c, mouse, plasma, iv, 10 mg/kg
Experimental: The efficacy of the two peptides was also investigated in non-neutropenic mice against S. aureus USA300. A higher bacterial inoculum at 2×10^8 CFU per mouse was used. […] To evaluate the peptide pharmacokinetics (Chhonker, et al. (2018) Biomed. Chromatogr. e4389), the plasma clearance rate of horine after intravenous injection of 10 mg/kg into BALB/c mice was followed.
Square brackets hold non-standard residues; d marks the D form. Peptide text beside a SMILES is read from it.
OBSERVATION_TYPE: level at 5 min
Show the value, then the unit it is measured in.

INSERT INTO results (compound, observation_type, observed_value) VALUES
  ('CC(C)C[C@H](NC(=O)[C@H](Cc1c[nH]c2ccccc12)NC(=O)[C@H](Cc1c[nH]c2ccccc12)NC(=O)[C@@H](N)Cc1c[nH]c2ccccc12)C(=O)N[C@@H](CCCNC(=N)N)C(=O)N[C@@H](CCCNC(=N)N)C(=O)N[C@@H](CCCNC(=N)N)C(=O)N[C@@H](Cc1c[nH]c2ccccc12)C(N)=O [Horine, WWWLRRRW] (H-WWWLRRRW-NH2; N-terminus and C-terminus assumed)', 'level at 5 min', '0.266 µg/mL');

Can you look up the measured level at 5 min of CC(C)C[C@@H](NC(=O)[C@@H](Cc1c[nH]c2ccccc12)NC(=O)[C@@H](Cc1c[nH]c2ccccc12)NC(=O)[C@H](N)Cc1c[nH]c2ccccc12)C(=O)N[C@H](CCCNC(=N)N)C(=O)N[C@H](CCCNC(=N)N)C(=O)N[C@H](CCCNC(=N)N)C(=O)N[C@H](Cc1c[nH]c2ccccc12)C(N)=O [D-horine] (H-[dW][dW][dW][dL][dR][dR][dR][dW]-NH2; N-terminus and C-terminus assumed) for me?
192 µg/mL
